Tested on: LXRa:RXRa (NR concentration 270 nM, RXRa partner concentration 90 nM)
ASSAY_TEXT: PBM binding z-score (relative to random genomic background probes); higher = stronger binding; sequences stand for … in GC…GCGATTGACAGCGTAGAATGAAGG
Threshold rule: PBM binding z-score greater than or equal to 1 is rule met; below that, rule not met.

> print(dat)
                        residue.string  category.label
 1  CCAACTGGGGCAGAAAGGTTACCATACCATCCGG    rule not met
 2  CTCGAAAGGTCCTGCTCAGGTGAGTATACCAAAC    rule not met
 3  CGTCAAAGTTCAACTAAGGTGACGTAAAGCACGC        rule met
 4  TCTTGTAGATCAATAGAGGCTAAGAAAGTGCGCT    rule not met
 5  GCTTACGGGTCAAAGGTTATAGCATGAATAGAAT        rule met
 6  TGAATGAGGTTATAATATCAGGGAACGTTGCAAA        rule met
 7  ATATGTAGGTTATCGGGTCATTCACTTTGCGCAT        rule met
 8  CCCGACAGGTGAGAAGGTAACTCAGCCTCGATTA    rule not met
 9  TTGCCTAGGTCATGCGGGCCAGTATAGTGTCGGC        rule met
10  TGAATGAGGTTATAGGATCAGGGAACGTTGCAAA        rule met
11  CTCGAAAGGTAGTGCTCAGGTGAGTATACCAAAC    rule not met
12  ACTCGGAGGACGAAGGTCAGAGCTACGCCAGTGA        rule met

Where these numbers come from: the supplement of paper PMC6555819
